- test: Verification pharmacokinetic experiment in rats, SPC 60 g crude drug/kg by gavage, UFLC-MS/MS, DAS 2.0
- Assay type: in vivo, rat
- experimental.setup: compartment model parameters, DAS 2.0; rats p.o. SPC 60 g crude drug/kg; Mean, 5 rats
test.readout: t1/2Ka (min)

1. O=c1c(-c2ccc(O)cc2)coc2cc(O[C@@H]3O[C@H](CO)[C@@H](O)[C@H](O)[C@H]3O)ccc12: 23.1
2. COc1cc(-c2coc3cc(O)ccc3c2=O)ccc1O: 11.1

(A) COc1cc([C@H]2c3cc(O)c(OC)cc3C[C@@H](CO)[C@@H]2CO)ccc1O
(B) COc1ccc(-c2coc3c(OC)c(O)ccc3c2=O)cc1
Lab note: check whether A or B shows the higher recorded t1/2Ka. Refer to your chosen entry by its label in the reply.
B
(B: 1214.8 min, A: 10.5 min)

* * *

- test: Verification pharmacokinetic experiment in rats, SPC 60 g crude drug/kg by gavage, UFLC-MS/MS, DAS 2.0
- Format: in vivo, rat
- experimental.setup: rat, plasma, po, 1.4 mg/kg; statistical moment parameters, DAS 2.0; rats p.o. SPC 60 g crude drug/kg; Mean, 5 rats; read-out: AUC(0-t)
test.readout: AUC(0-t) (ng·h/mL)
// units = ng·h/mL; emit number, no label

Dear colleague, please send me the reported AUC(0-t) for O=c1c(-c2ccc(O)cc2)coc2cc(O[C@@H]3O[C@H](CO)[C@@H](O)[C@H](O)[C@H]3O)ccc12 when you can.
35.5

* * *

- test: Verification pharmacokinetic experiment in rats, SPC 60 g crude drug/kg by gavage, UFLC-MS/MS, DAS 2.0
- Format: in vivo, rat
- experimental.setup: rat, plasma, po, 2.62 mg/kg, statistical moment parameters, DAS 2.0; rats p.o. SPC 60 g crude drug/kg; Mean, 5 rats; read-out: CLz/F (converted)
test.readout: CL/F (mL/min/kg)
Give just the numeric value; mL/min/kg need not be written.

Consider the compound COc1cc([C@H]2c3cc(O)c(OC)cc3C[C@@H](CO)[C@@H]2CO)ccc1O . State its measured CL/F.
738

* * *

- test: Verification pharmacokinetic experiment in rats, SPC 60 g crude drug/kg by gavage, UFLC-MS/MS, DAS 2.0
- Assay type: in vivo, rat
- experimental.setup: rat, plasma, po, 1.4 mg/kg; statistical moment parameters, DAS 2.0; rats p.o. SPC 60 g crude drug/kg; Mean, 5 rats; read-out: t1/2z (converted)
test.readout: half-life (h)
Give just the number in h; leave the unit off.

Please give measured half-life of the following entry: O=c1c(-c2ccc(O)cc2)coc2cc(O[C@@H]3O[C@H](CO)[C@@H](O)[C@H](O)[C@H]3O)ccc12
1.82

* * *

- test: Verification pharmacokinetic experiment in rats, SPC 60 g crude drug/kg by gavage, UFLC-MS/MS, DAS 2.0
- Assay type: in vivo, rat
- experimental.setup: rat, plasma, po, 1.4 mg/kg; statistical moment parameters, DAS 2.0; rats p.o. SPC 60 g crude drug/kg; Mean, 5 rats; read-out: Tmax
- Protocol: To validate the accuracy of PBPK models in predicting the pharmacokinetics of SPC constituents at different oral doses, the pharmacokinetic behavior of these four constituents from SPC in rats were analyzed by UFLC-MS/MS. The parameters were calculated using Drug and Statistics Software version 2.0, and then these validated values (Val.) were used to check the accuracy of the Calc. values and evaluated by FE. […]
test.readout: Tmax (min)
Expressed in min, but write only the number.

Return Tmax for the following compound: O=c1c(-c2ccc(O)cc2)coc2cc(O[C@@H]3O[C@H](CO)[C@@H](O)[C@H](O)[C@H]3O)ccc12 [Constituent 3, daidzin]
15

* * *

- test: Verification pharmacokinetic experiment in rats, SPC 60 g crude drug/kg by gavage, UFLC-MS/MS, DAS 2.0
- Assay type: in vivo, rat
- experimental.setup: rat, plasma, po, 0.124 mg/kg, statistical moment parameters, DAS 2.0; rats p.o. SPC 60 g crude drug/kg; Mean, 5 rats; read-out: Vz/F
test.readout: Vd/F (L/kg)
Answer format: numeric, L/kg implied, no suffix.

In one line, give reported Vd/F of the entry COc1cc(-c2coc3cc(O)ccc3c2=O)ccc1O .
25.9

* * *

- test: Verification pharmacokinetic experiment in rats, SPC 60 g crude drug/kg by gavage, UFLC-MS/MS, DAS 2.0
- Assay type: in vivo, rat
- experimental.setup: rat, plasma, po, 0.22 mg/kg, statistical moment parameters, DAS 2.0; rats p.o. SPC 60 g crude drug/kg; Mean, 5 rats; read-out: MRT(0-∞)
test.readout: MRT inf (h)
Number only, in h; omit the unit.

# return recorded MRT inf for input COc1ccc(-c2coc3c(OC)c(O)ccc3c2=O)cc1 [Constituent 2, 8-O-methylretusin]
1.3

* * *

- test: Verification pharmacokinetic experiment in rats, SPC 60 g crude drug/kg by gavage, UFLC-MS/MS, DAS 2.0
- Assay type: in vivo, rat
- experimental.setup: statistical moment parameters, DAS 2.0; rats p.o. SPC 60 g crude drug/kg; Mean, 5 rats
test.readout: elimination rate constant (h⁻¹)

(P) COc1cc([C@H]2c3cc(O)c(OC)cc3C[C@@H](CO)[C@@H]2CO)ccc1O
(Q) COc1ccc(-c2coc3c(OC)c(O)ccc3c2=O)cc1
(R) COc1cc(-c2coc3cc(O)ccc3c2=O)ccc1O
Hey, quick one: sort these by elimination rate constant, largest value first please. Provide your answer as the labels ordered per the instruction.
Q, P, R
(Q: 0.675 h⁻¹, P: 0.412 h⁻¹, R: 0.247 h⁻¹)

* * *

- test: Verification pharmacokinetic experiment in rats, SPC 60 g crude drug/kg by gavage, UFLC-MS/MS, DAS 2.0
- Assay type: in vivo, rat
- experimental.setup: compartment model parameters, DAS 2.0; rats p.o. SPC 60 g crude drug/kg; Mean, 5 rats
test.readout: V1/F (L/kg)

1) O=c1c(-c2ccc(O)cc2)coc2cc(O[C@@H]3O[C@H](CO)[C@@H](O)[C@H](O)[C@H]3O)ccc12: 37.289

(P) COc1cc([C@H]2c3cc(O)c(OC)cc3C[C@@H](CO)[C@@H]2CO)ccc1O
(Q) COc1ccc(-c2coc3c(OC)c(O)ccc3c2=O)cc1
// which entry reports the smaller V1/F, P or Q ? Please respond with the label that marks your chosen entry.
Q

* * *

- test: Verification pharmacokinetic experiment in rats, SPC 60 g crude drug/kg by gavage, UFLC-MS/MS, DAS 2.0
- Format: in vivo, rat
- experimental.setup: rat, plasma, po, 0.22 mg/kg, statistical moment parameters, DAS 2.0; rats p.o. SPC 60 g crude drug/kg; Mean, 5 rats; read-out: AUC(0-t)
test.readout: AUC(0-t) (ng·h/mL)
The answer is to be given in ng·h/mL; state only the numeric part.

Find the measured AUC(0-t) of COc1ccc(-c2coc3c(OC)c(O)ccc3c2=O)cc1 and report it.
15.3

* * *

- test: Verification pharmacokinetic experiment in rats, SPC 60 g crude drug/kg by gavage, UFLC-MS/MS, DAS 2.0
- Format: in vivo, rat
- experimental.setup: statistical moment parameters, DAS 2.0; rats p.o. SPC 60 g crude drug/kg; Mean, 5 rats
- Description: To validate the accuracy of PBPK models in predicting the pharmacokinetics of SPC constituents at different oral doses, the pharmacokinetic behavior of these four constituents from SPC in rats were analyzed by UFLC-MS/MS. The parameters were calculated using Drug and Statistics Software version 2.0, and then these validated values (Val.) were used to check the accuracy of the Calc. values and evaluated by FE. […]
test.readout: VRT(0-t) (h^2)

Look over these answered cases.
1. O=c1c(-c2ccc(O)cc2)coc2cc(O[C@@H]3O[C@H](CO)[C@@H](O)[C@H](O)[C@H]3O)ccc12: 4.934
2. COc1ccc(-c2coc3c(OC)c(O)ccc3c2=O)cc1: 1.65

(I) COc1cc(-c2coc3cc(O)ccc3c2=O)ccc1O
(II) COc1cc([C@H]2c3cc(O)c(OC)cc3C[C@@H](CO)[C@@H]2CO)ccc1O
Parameter check: reported VRT(0-t) is higher for which label, I or II ? State your choice using its label.
I

* * *

- test: Verification pharmacokinetic experiment in rats, SPC 60 g crude drug/kg by gavage, UFLC-MS/MS, DAS 2.0
- Format: in vivo, rat
- experimental.setup: rat, plasma, po, 2.62 mg/kg, statistical moment parameters, DAS 2.0; rats p.o. SPC 60 g crude drug/kg; Mean, 5 rats; read-out: Tmax
test.readout: Tmax (min)
Give the value, in units of min, as a plain number.

Return reported Tmax. Input compound: COc1cc([C@H]2c3cc(O)c(OC)cc3C[C@@H](CO)[C@@H]2CO)ccc1O [Constituent 4, isolariciresinol]
18

* * *

- test: Verification pharmacokinetic experiment in rats, SPC 60 g crude drug/kg by gavage, UFLC-MS/MS, DAS 2.0
- Assay type: in vivo, rat
- experimental.setup: compartment model parameters, DAS 2.0; rats p.o. SPC 60 g crude drug/kg; Mean, 5 rats
test.readout: t1/2α (min)

1) O=c1c(-c2ccc(O)cc2)coc2cc(O[C@@H]3O[C@H](CO)[C@@H](O)[C@H](O)[C@H]3O)ccc12 [Constituent 3, daidzin]: 52.1

(I) COc1cc([C@H]2c3cc(O)c(OC)cc3C[C@@H](CO)[C@@H]2CO)ccc1O [Constituent 4, isolariciresinol]
(II) COc1ccc(-c2coc3c(OC)c(O)ccc3c2=O)cc1 [Constituent 2, 8-O-methylretusin]
(III) COc1cc(-c2coc3cc(O)ccc3c2=O)ccc1O [Constituent 1, 3′-methoxydadizein]
Please produce an ascending ranking of these compounds based on t1/2α. The response must list the labels following the requested ordering.
I, III, II
